Target: NHE (Na^+ /H^+ exchanger) (Rattus norvegicus)
Construct: A rat mesenteric artery was isolated; from tissue; host or cells: isolated rat mesenteric artery segments
Test: NHE inhibitory activity (recovery of the pH in cells after acid load, BCECF, rat mesenteric artery)
Assay type: cell-based
Settings: Conc. 0.1 μM, read-out: Percent NHE inhibition (%)
ENDPOINT_LABEL: inhibition at 0.1 µM (%)

These solved cases illustrate the format of a correct answer.
{"MOLECULE": "NC(N)=NC(=O)c1cc(-c2ccccc2)nc2ccc(Cl)cc12", "SUBJECT_OF_TEST": "NHE (Na^+ /H^+ exchanger) (Rattus norvegicus)", "MEASUREMENT_UNIT": "%", "ENDPOINT_VALUE": 0}
{"MOLECULE": "COc1cc(OC)c2c(C(=O)N=C(N)N)cc(-c3ccccc3)nc2c1", "SUBJECT_OF_TEST": "NHE (Na^+ /H^+ exchanger) (Rattus norvegicus)", "MEASUREMENT_UNIT": "%", "ENDPOINT_VALUE": 53.2}
{"MOLECULE": "COc1ccc2c(C(=O)N=C(N)N)cc(-c3ccccc3)nc2c1", "SUBJECT_OF_TEST": "NHE (Na^+ /H^+ exchanger) (Rattus norvegicus)", "MEASUREMENT_UNIT": "%", "ENDPOINT_VALUE": 29.8}
{"MOLECULE": "CC(C)c1ccccc1-c1cc(C(=O)N=C(N)N)c2ccccc2n1", "SUBJECT_OF_TEST": "NHE (Na^+ /H^+ exchanger) (Rattus norvegicus)", "MEASUREMENT_UNIT": "%", "ENDPOINT_VALUE": 29.3}
{"MOLECULE": "Cc1cc(C)c(-c2cc(C(=O)N=C(N)N)c3ccccc3n2)c(C)c1", "SUBJECT_OF_TEST": "NHE (Na^+ /H^+ exchanger) (Rattus norvegicus)", "MEASUREMENT_UNIT": "%", "ENDPOINT_VALUE": 23.7}

a. NC(N)=NC(=O)c1cc(-c2ccccc2C(F)(F)F)nc2ccccc12
b. CS(=O)(=O)Nc1cccc2c(C(=O)N=C(N)N)cc(-c3ccccc3)nc12
Between a and b , which one shows the larger inhibition at 0.1 µM value? Kindly give the label for the entry you pick.
b

###

Molecular target: NHE (Na^+ /H^+ exchanger) (Rattus norvegicus, UniProt P26431)
Construct: A rat mesenteric artery was isolated; from tissue; host or cells: isolated rat mesenteric artery segments
Sequence (P26431 whole entry): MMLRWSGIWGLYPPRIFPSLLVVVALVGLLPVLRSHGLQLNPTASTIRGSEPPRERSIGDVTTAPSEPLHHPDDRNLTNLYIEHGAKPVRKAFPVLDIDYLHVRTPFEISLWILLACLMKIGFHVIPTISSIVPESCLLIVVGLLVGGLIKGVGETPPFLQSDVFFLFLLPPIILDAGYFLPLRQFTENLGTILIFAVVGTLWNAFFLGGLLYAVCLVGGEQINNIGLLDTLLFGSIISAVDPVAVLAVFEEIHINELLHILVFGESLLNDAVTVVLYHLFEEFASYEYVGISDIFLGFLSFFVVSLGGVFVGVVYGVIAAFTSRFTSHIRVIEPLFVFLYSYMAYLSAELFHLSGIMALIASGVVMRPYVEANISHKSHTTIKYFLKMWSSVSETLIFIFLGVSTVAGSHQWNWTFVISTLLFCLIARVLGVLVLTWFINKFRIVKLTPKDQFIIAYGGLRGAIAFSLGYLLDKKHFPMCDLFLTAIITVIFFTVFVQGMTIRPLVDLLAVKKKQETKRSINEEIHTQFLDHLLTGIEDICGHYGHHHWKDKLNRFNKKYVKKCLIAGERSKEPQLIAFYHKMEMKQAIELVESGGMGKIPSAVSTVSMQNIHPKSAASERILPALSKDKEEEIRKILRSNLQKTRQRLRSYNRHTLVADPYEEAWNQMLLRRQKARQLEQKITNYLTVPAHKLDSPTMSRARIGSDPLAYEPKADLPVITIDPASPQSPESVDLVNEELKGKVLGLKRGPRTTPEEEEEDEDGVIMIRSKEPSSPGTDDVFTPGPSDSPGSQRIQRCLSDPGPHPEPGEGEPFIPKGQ
Sequence (P61023 2-195 partner limits assumed): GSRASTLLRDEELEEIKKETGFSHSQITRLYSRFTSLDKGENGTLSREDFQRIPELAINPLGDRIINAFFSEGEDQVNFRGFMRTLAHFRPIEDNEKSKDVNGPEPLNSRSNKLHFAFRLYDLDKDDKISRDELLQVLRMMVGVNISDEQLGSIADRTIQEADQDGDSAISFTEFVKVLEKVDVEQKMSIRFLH
Assay: NHE inhibitory activity (recovery of the pH in cells after acid load, BCECF, rat mesenteric artery)
Format: cell-based
Details: Conc. 1 μM, read-out: Percent NHE inhibition (%)
ENDPOINT_LABEL: inhibition at 1 µM (%)

{"COMPOUND": "Cc1ccc(-c2cc(C(=O)N=C(N)N)c3ccccc3n2)cc1 [Example 2]", "ENDPOINT_LABEL": "inhibition at 1 µM", "ENDPOINT_VALUE": 41.4}

P. Cc1ccc(-c2cc(C(=O)N=C(N)N)c3ccccc3n2)cc1C [Example 7]
Q. NC(N)=NC(=O)c1cc(-c2ccccc2)nc2c(Cl)cccc12 [Example 31]
Please compare: P and Q . Report which one has the smaller inhibition at 1 µM value. Reply with the label of the item you choose.
P

###

Molecular target: NHE (Na^+ /H^+ exchanger) (Rattus norvegicus)
Construct: A rat mesenteric artery was isolated; from tissue; host or cells: isolated rat mesenteric artery segments
Assay: NHE inhibitory activity (recovery of the pH in cells after acid load, BCECF, rat mesenteric artery)
Type: cell-based
Conditions: Conc. 1 μM, read-out: Percent NHE inhibition (%)
ENDPOINT_LABEL: inhibition at 1 µM (%)

{"MOLECULE": "NC(N)=NC(=O)c1cc(-c2cccc(N)c2)nc2ccccc12 [Example 20]", "ENDPOINT_LABEL": "inhibition at 1 µM", "ENDPOINT_VALUE": 42.2}
{"MOLECULE": "COCOc1ccc2c(C(=O)N=C(N)N)cc(-c3ccccc3C)nc2c1 [Example 45]", "ENDPOINT_LABEL": "inhibition at 1 µM", "ENDPOINT_VALUE": 46.5}
{"MOLECULE": "NC(N)=NC(=O)c1cc(-c2ccccc2Cl)nc2ccccc12 [Example 14]", "ENDPOINT_LABEL": "inhibition at 1 µM", "ENDPOINT_VALUE": 34.3}
{"MOLECULE": "CC(C)c1ccccc1-c1cc(C(=O)N=C(N)N)c2ccccc2n1 [Example 5]", "ENDPOINT_LABEL": "inhibition at 1 µM", "ENDPOINT_VALUE": 42.3}
